system: KM12 colon; experiment: NCI tumour cell line growth inhibition, 48 h; in the data active = GI50 below about 0.43 µM; inactive = the rest
Labels: true (1) = active, false (0) = inactive

smi: CC(C)(CO)CNC(=O)c1ccc2[nH]c(O)c(N=Nc3ccc(S(N)(=O)=O)cc3)c2c1
target.under.test: KM12 colon
category: false (0)
--
smi: COc1ccc2c(N)ncc(C#Cc3cc(C(=O)Nc4ccc(CN5CCN(C)CC5)c(C(F)(F)F)c4)cnc3C)c2c1
target.under.test: KM12 colon
category: true (1)
--
smi: CC1(C)OC[C@@H]([C@@]2(CO[Si](c3ccccc3)(c3ccccc3)C(C)(C)C)CC=CC(=O)O2)O1
target.under.test: KM12 colon
category: false (0)
--
smi: O=C(Nc1cccc(-n2cc(-c3ccncc3)c(-c3cc(O)cc(Cl)c3)n2)c1)c1ccc(N2CCOCC2)c(C(F)(F)F)c1
target.under.test: KM12 colon
category: false (0)

---

test system: DLD-1 colon; experiment: NCI tumour cell line growth inhibition, 48 h

compound: COC(=O)CC(=O)OSc1ccccc1
TGI: 48 µM
//
compound: COc1cc2oc(-c3ccc(O)cc3)cc(=O)c2c(O)c1C1OC(CO)C(O)C(O)C1O (stereo unspecified)
TGI: > 100 µM
//
compound: CCCCCCN(CCCCCC)C(=S)N/N=C(\C)c1ccccn1
TGI: 2.93 µM
//
compound: NNC(=O)C(=O)N/N=C1/CCCC1C(=O)CCC(=O)Nc1ccc(Cl)cc1 (stereo unspecified)
TGI: > 100 µM
//
compound: O=[N+]([O-])c1ccccc1C1SCc2nc3ccccc3n21 (stereo unspecified)
TGI: > 100 µM
//
compound: COc1cc2ccc3c4cc(OC)c(OC)cc4c[n+](C)c3c2cc1O
TGI: > 100 µM
//
compound: O=C1NC2=C(CCCCC/C2=N\O)C12CCCCCC2
TGI: > 100 µM
//
compound: CN(C)CCNC(=O)c1cccc2c1Nc1ccccc1S2
TGI: 29.7 µM
//
compound: CC1=NN(C(=O)Cc2ccccc2)C(=O)/C1=C\c1ccc(O)cc1
TGI: > 100 µM
//
compound: Cc1nc2ccccc2nc1CC(=O)C(=O)Nc1ccc(Cl)cc1Cl
TGI: > 100 µM
//
compound: O=C(NC12CC3CCC1CC(C3)C2)[C@@H]1CCCN1C(=O)OCc1ccccc1 (stereo partly specified)
TGI: > 100 µM

---

tested on: SF-268 CNS; assay: NCI tumour cell line growth inhibition, 48 h

molecule: NNC(=O)C(=O)N/N=C1/CCCC1C(=O)CCC(=O)Nc1ccc(Cl)cc1 (stereo not given)
TGI: > 100 µM
//
molecule: COc1ccc2c(c1)C(=O)c1c-2c(Nc2ccccc2OC)nc2ccccc12
TGI: > 100 µM
//
molecule: Cn1nc(-c2ccc(S(=O)(=O)/N=C(\NN)Nc3ccc(Cl)cc3)s2)cc1C(F)(F)F
TGI: 32.6 µM
//
molecule: CC1(C)CC(=O)C2=C(C1)C(c1ccccc1Cl)C1C(=O)CC(C)(C)CC1(O)O2 (stereo not given)
TGI: > 100 µM
//
molecule: O=c1cc(O)cc2n1CCC2
TGI: > 100 µM
//
molecule: COc1cc(C)c(CC/C(C)=C/Cc2cc(O)ccc2O)c(C)c1C
TGI: > 25 µM
//
molecule: c1c[nH]c(-c2cccc3nsnc23)c1
TGI: > 100 µM
//
molecule: O=C1NC2=C(CCCCC/C2=N\O)C12CCCCCC2
TGI: > 100 µM
//
molecule: CN(C)CCn1c(=O)c2ccc(NCCCN(C)CCCNc3ccc4c(=O)n(CCN(C)C)c(=O)n5c6ccc(O)cc6c(=O)c3c45)c3c(=O)c4cc(O)ccc4n(c1=O)c23
TGI: 1.04 µM
//
molecule: CCc1c(O)cc(=O)oc1-c1ccc(OC)c(OC)c1
TGI: > 100 µM

Sourced from PubChem BioAssay (NCI)
